Catalogue of activity at 15 min, 50 µM readings, one per entry.
# Target or system: UniProt Q9HAW9
# Sequence (Q9HAW9 26-530): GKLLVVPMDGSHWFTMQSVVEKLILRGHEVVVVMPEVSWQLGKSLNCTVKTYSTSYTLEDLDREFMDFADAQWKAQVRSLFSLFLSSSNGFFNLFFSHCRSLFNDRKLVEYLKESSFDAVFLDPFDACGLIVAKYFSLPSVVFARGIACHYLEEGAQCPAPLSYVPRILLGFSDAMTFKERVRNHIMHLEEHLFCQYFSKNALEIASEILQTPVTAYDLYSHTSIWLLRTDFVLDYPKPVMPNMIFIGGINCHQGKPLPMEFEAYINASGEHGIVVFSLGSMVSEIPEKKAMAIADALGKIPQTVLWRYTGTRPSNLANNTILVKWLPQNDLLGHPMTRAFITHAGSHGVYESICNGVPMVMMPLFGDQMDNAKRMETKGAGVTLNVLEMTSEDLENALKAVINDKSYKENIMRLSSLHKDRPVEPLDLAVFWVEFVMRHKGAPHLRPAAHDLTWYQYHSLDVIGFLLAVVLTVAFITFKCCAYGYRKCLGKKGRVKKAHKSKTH
# Protocol details: Inhibition of raloxifene glucuronidation by recombinant UGT1A8 Supersomes
# Measurement setup: human, Supersomes with recombinant human UGT1A8, pH 7.5, probe raloxifene 50 μM, formation of glucuronide G1, % of control metabolism, raloxifene G1, UGT1A8; inhibitor 50 μM
Measured quantity: activity at 15 min, 50 µM (%)

Molecule	Experimental value
CCCCCCCCOC(=O)c1cc(O)c(O)c(O)c1 [Octyl gallate]	116
O=C(O[C@@H]1Cc2c(O)cc(O)cc2O[C@H]1c1cc(O)c(O)c(O)c1)c1cc(O)c(O)c(O)c1 [Gallocatechin gallate]	36

----------
# Test system: UGT enzymes of pooled human jejunum microsomes
# Protocol details: Inhibition of raloxifene glucuronidation (G1, G2) in pooled human jejunum microsomes
# Format: biochemical
# Measurement setup: jejunum HJ61; inhibitor 50 μM
Measured quantity: % of control metabolism, raloxifene G1

Compound	Target or system	Experimental value
CCCCCCCCOC(=O)c1cc(O)c(O)c(O)c1 [Octyl gallate]	UGT enzymes of pooled human jejunum microsomes	80 (3) %
O=C(O[C@@H]1Cc2c(O)cc(O)cc2O[C@@H]1c1cc(O)c(O)c(O)c1)c1cc(O)c(O)c(O)c1 [Epigallocatechin gallate]	UGT enzymes of pooled human jejunum microsomes	38 (2) %
O=C(O[C@@H]1Cc2c(O)cc(O)cc2O[C@@H]1c1ccc(O)c(O)c1)c1cc(O)c(O)c(O)c1 [Epicatechin gallate]	UGT enzymes of pooled human jejunum microsomes	34 (3) %
O=C(O[C@@H]1Cc2c(O)cc(O)cc2O[C@H]1c1cc(O)c(O)c(O)c1)c1cc(O)c(O)c(O)c1 [Gallocatechin gallate]	UGT enzymes of pooled human jejunum microsomes	10 (0), 10 (0) %
O=C(O)c1cc(-c2ccc(F)cc2F)ccc1O [Diflunisal, reference compound]	UGT enzymes of pooled human jejunum microsomes	69 (3) %
C=CCc1ccc(O)c(OC)c1 [Eugenol]	UGT enzymes of pooled human jejunum microsomes	91 (1) %
O=c1c(O)c(-c2ccc(O)c(O)c2)oc2cc(O)cc(O)c12 [Quercetin]	UGT enzymes of pooled human jejunum microsomes	25 (1) %

----------
# Target or system: UGT1A3 (Homo sapiens)
# Sequence (P35503 29-534): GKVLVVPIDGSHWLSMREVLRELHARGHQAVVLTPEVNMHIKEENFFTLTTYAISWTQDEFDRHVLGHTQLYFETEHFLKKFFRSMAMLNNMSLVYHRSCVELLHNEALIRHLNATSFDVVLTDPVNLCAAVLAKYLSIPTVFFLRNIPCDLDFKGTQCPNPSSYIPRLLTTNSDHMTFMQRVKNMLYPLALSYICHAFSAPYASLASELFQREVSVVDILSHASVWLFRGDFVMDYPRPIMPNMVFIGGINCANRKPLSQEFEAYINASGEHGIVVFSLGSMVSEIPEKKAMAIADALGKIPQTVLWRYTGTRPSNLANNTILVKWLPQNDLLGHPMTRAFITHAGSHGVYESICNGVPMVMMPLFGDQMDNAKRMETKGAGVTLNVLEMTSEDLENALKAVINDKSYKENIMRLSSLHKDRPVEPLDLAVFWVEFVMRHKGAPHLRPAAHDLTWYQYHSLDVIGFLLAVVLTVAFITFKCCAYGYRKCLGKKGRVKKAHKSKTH
# Protocol details: Inhibition of raloxifene glucuronidation by recombinant UGT1A3 Supersomes
# Measurement setup: human, recombinant UGT1A3 Supersomes, pH 7.5, probe raloxifene 50 μM (formation of glucuronide G1), Inhibition of raloxifene glucuronidation, G1, UGT1A3, G1; inhibitor 25 μM; raloxifene 50 μM, 250 μg/ml Supersomes, 1 mM UDPGA, 15 min
Please enter Condition met where activity at 15 min, 25 µM is greater than or equal to 30%, and Condition not met where it is lower.

Compound	Group
CCCCCCCCOC(=O)c1cc(O)c(O)c(O)c1 [Octyl gallate]	Condition not met
O=c1c(O)c(-c2ccc(O)c(O)c2)oc2cc(O)cc(O)c12	Condition met
O=C(OC[C@H]1O[C@@H](OC(=O)c2cc(O)c(O)c(OC(=O)c3cc(O)c(O)c(O)c3)c2)[C@H](OC(=O)c2cc(O)c(O)c(OC(=O)c3cc(O)c(O)c(O)c3)c2)[C@@H](OC(=O)c2cc(O)c(O)c(OC(=O)c3cc(O)c(O)c(O)c3)c2)[C@@H]1OC(=O)c1cc(O)c(O)c(OC(=O)c2cc(O)c(O)c(O)c2)c1)c1cc(O)c(O)c(OC(=O)c2cc(O)c(O)c(O)c2)c1	Condition not met
CC/C(=C(/CC)c1ccc(O)cc1)c1ccc(O)cc1 [Diethylstilbestrol, reference compound]	Condition met
O=C(O[C@@H]1Cc2c(O)cc(O)cc2O[C@H]1c1cc(O)c(O)c(O)c1)c1cc(O)c(O)c(O)c1 [Gallocatechin gallate]	Condition met
